Assay: modifiers of HSF1 nuclear foci, imaging, Selleck Cancer Library (AID 1347162)
Details: human cells, at 10 µM; measured here: cell number
Mark each entry Met if its cell count sits below 7000, and Not met for all others.

C=CCc1cccc(/C=N/NC(=O)CN2CCN(Cc3ccccc3)CC2)c1O
Not met
NC(=O)Nc1sc(-c2ccc(F)cc2)cc1C(N)=O
Met
Oc1ccc(Nc2nc(-c3ccc(Cl)cc3)cs2)cc1
Met
CC[C@]1(O)CC2CN(CCc3c([nH]c4ccccc34)[C@@](C(=O)OC)(c3cc4c(cc3OC)N(C=O)[C@H]3[C@@](O)(C(=O)OC)[C@H](OC(C)=O)[C@]5(CC)C=CCN6CC[C@]43[C@@H]65)C2)C1 (some centres undefined)
Met

[in] State whether 7000 exceeds cell count recorded for CCOc1ccc(Nc2nc(-c3c(C)nc4ccccn34)cs2)cc1 .
[out] Met

[in] State whether 7000 exceeds cell count recorded for COc1ccc(CCN(C)CCCOc2ccc(S(=O)(=O)c3c(C(C)C)c4ccccc4n3C)cc2)cc1OC .
[out] Met

[in] State whether 7000 exceeds cell count recorded for CN1C(=O)C(Cc2c[nH]c3ccccc23)NC1=S (centres undefined) .
[out] Not met

[in] State whether 7000 exceeds cell count recorded for CN(C)CCOc1ccc(/C(=C(/CCCl)c2ccccc2)c2ccccc2)cc1 .
[out] Met
